B1: LINE1-full (parent)
chain: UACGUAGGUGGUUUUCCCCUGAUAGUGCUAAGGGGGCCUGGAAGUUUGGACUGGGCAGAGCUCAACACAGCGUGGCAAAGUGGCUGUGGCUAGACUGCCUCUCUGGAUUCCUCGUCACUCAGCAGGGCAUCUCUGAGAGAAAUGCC

- Variants of: B1
- Procedure summary: self-cleavage, relative activity (ratio to wild type); higher = more cleavage; in vitro, sequencing; the parent is a self-cleaving ribozyme
Measure name: self-cleavage
Please respond with just the number, no unit label.

The reported self-cleavage of the variant A43U U45C was 0.87

The reported self-cleavage of the variant U47A U100C was 1.81

The reported self-cleavage of the variant G106A U132G was 1.67

The reported self-cleavage of the variant U13A U14A was 1.14

The reported self-cleavage of the variant U47G A140U was 0.9

The reported self-cleavage of the variant U20C U130G was 1.63

The reported self-cleavage of the variant G34C A124U was 1.91

The reported self-cleavage of the variant G11A C28G was 1.12

The reported self-cleavage of the variant C3U G8C was 0.53

The reported self-cleavage of the variant U108G G122C was 0

The reported self-cleavage of the variant U12C C146G was 1.03

The reported self-cleavage of the variant A57G U85A was 0.13

The reported self-cleavage of the variant C118U was 1.32

The reported self-cleavage of the variant U96C A129G was 0.11

The reported self-cleavage of the variant U26A A141G was 1.11

The reported self-cleavage of the variant U26C A140U was 0.59

The reported self-cleavage of the variant C71U U130A was 1

The reported self-cleavage of the variant U100C A136G was 1.91

The reported self-cleavage of the variant U81A G127A was 1.72

The reported self-cleavage of the variant G11A U12C was 0.33

The reported self-cleavage of the variant A64U A124U was 0.38

The reported self-cleavage of the variant A2G U87A was 0.32

The reported self-cleavage of the variant U47C A64U was 0.52

The reported self-cleavage of the variant U96C A124U was 0.14

The reported self-cleavage of the variant A78G U119A was 1.33

The reported self-cleavage of the variant A2G U13C was 0.64

The reported self-cleavage of the variant A94C A140G was 0.04

The reported self-cleavage of the variant U14G C18A was 1.09

The reported self-cleavage of the variant C90U U132A was 0.01

The reported self-cleavage of the variant U87A U108C was 0.11

The reported self-cleavage of the variant U20A A30G was 0.9

The reported self-cleavage of the variant A6G U13C was 0.93

The reported self-cleavage of the variant U15A A142G was 1.13

The reported self-cleavage of the variant U96A U115A was 0.08

The reported self-cleavage of the variant A79G G89C was 0.05

The reported self-cleavage of the variant U12A A65G was 0.21

The reported self-cleavage of the variant U12C A121G was 1.74

The reported self-cleavage of the variant G74A U85C was 0.06

The reported self-cleavage of the variant U102C U134A was 1.59

The reported self-cleavage of the variant U102C C133U was 0.47

The reported self-cleavage of the variant U45A C51G was 1.44

The reported self-cleavage of the variant G74A A141G was 0.97

The reported self-cleavage of the variant G114C A138G was 1.41

The reported self-cleavage of the variant U96A U132C was 0.12

The reported self-cleavage of the variant C118U C131U was 1.66

The reported self-cleavage of the variant C123U U130C was 1.74

The reported self-cleavage of the variant U46A A69U was 0.05

The reported self-cleavage of the variant G54C C61U was 0.05

The reported self-cleavage of the variant U1A U26G was 1.19

The reported self-cleavage of the variant A59U U91C was 0.34

The reported self-cleavage of the variant C37G U45C was 1.6

The reported self-cleavage of the variant U14A C101A was 1.42

The reported self-cleavage of the variant U1C U96A was 0.09

The reported self-cleavage of the variant U52A G82U was 1.26

The reported self-cleavage of the variant G70A U73A was 0.09

The reported self-cleavage of the variant U14C C76U was 1.23

The reported self-cleavage of the variant A78C C90U was 0.03

The reported self-cleavage of the variant U87A C145U was 0.1

The reported self-cleavage of the variant G60A C61G was 0.04

The reported self-cleavage of the variant U5A A67U was 0.14

The reported self-cleavage of the variant U81A C145A was 2.25

The reported self-cleavage of the variant U47C A50C was 0.94

The reported self-cleavage of the variant C66U U130C was 0.05

The reported self-cleavage of the variant U26A U134C was 0.9

The reported self-cleavage of the variant A50G G80A was 1.79

The reported self-cleavage of the variant A57G A69U was 0.07

The reported self-cleavage of the variant U1A A22U was 0.41

The reported self-cleavage of the variant G60A U62A was 0.01

The reported self-cleavage of the variant U73C A142U was 1.24

The reported self-cleavage of the variant G106U A136U was 0.83

The reported self-cleavage of the variant G49C A59G was 0.12

The reported self-cleavage of the variant U15C G83A was 0.72

The reported self-cleavage of the variant A42G U134A was 0.93

The reported self-cleavage of the variant C17G U143C was 1.09

The reported self-cleavage of the variant U96G U108G was 0.16

The reported self-cleavage of the variant U29C A64G was 0.38

The reported self-cleavage of the variant U13A A30U was 0.7

The reported self-cleavage of the variant A42G U62A was 0.06

The reported self-cleavage of the variant A50C C120U was 1.66

The reported self-cleavage of the variant A94U U143C was 0.24

The reported self-cleavage of the variant U1A G72A was 1.55

The reported self-cleavage of the variant U47G A136U was 1.53

The reported self-cleavage of the variant A6G C111U was 1

The reported self-cleavage of the variant A59U A64U was 0.62

The reported self-cleavage of the variant A42G U96A was 0.03

The reported self-cleavage of the variant G93U A142U was 0.04

The reported self-cleavage of the variant G83U U112C was 0.85

The reported self-cleavage of the variant A107U U115C was 1.55

The reported self-cleavage of the variant A50U A129G was 0.83

The reported self-cleavage of the variant U20G U73G was 0.49

The reported self-cleavage of the variant G7C was 1.4
